Where do these numbers come from? They come from ChEMBL document CHEMBL4513216.

System: Plasmodium berghei
Test: Screen against P. berghei liver stage (PbLuc), transformed with Luciferase, at 10uM
Format: functional, HepG2
Details: tested at 10 uM
Out of some 69,000 compounds screened, about 8,600 (12%) showed an effect of 50% or more. This excerpt belongs to a sample that is enriched for strong results.
Parameter threshold = 30%. Response is y when INHIBITION meets or exceeds it, else n.

[[record]]
molecule = "NC(=O)N1CCCN(CCc2nc(-c3cccc(Cl)c3)no2)CC1"
target_system = "Plasmodium berghei"
qualitative_label = "n"

[[record]]
molecule = "CC(O)c1cccc(Nc2nc(NCCO)c3ccccc3n2)c1 (stereo not given)"
target_system = "Plasmodium berghei"
qualitative_label = "y"

[[record]]
molecule = "O=C(NCCc1nncn1C1CC1)c1cnn(Cc2ccccc2)c1"
target_system = "Plasmodium berghei"
qualitative_label = "n"

[[record]]
molecule = "CN(Cc1nccn1CC(F)(F)F)C(=O)c1ccc(F)c(F)c1"
target_system = "Plasmodium berghei"
qualitative_label = "n"

[[record]]
molecule = "Cc1noc(C(C)C)c1C(=O)NCc1ccc2c(c1)OCCO2"
target_system = "Plasmodium berghei"
qualitative_label = "n"

[[record]]
molecule = "CN(C)CCN1C[C@@H]2CN(S(=O)(=O)c3ccccc3)C[C@@H]2C1=O"
target_system = "Plasmodium berghei"
qualitative_label = "y"

[[record]]
molecule = "CCSCCNC(=O)Nc1cc(C(=O)N2CCOCC2)ccc1Cl"
target_system = "Plasmodium berghei"
qualitative_label = "y"

[[record]]
molecule = "Cc1ccc(CCCC(=O)N2CCCC(CS(N)(=O)=O)C2)s1 (stereo not given)"
target_system = "Plasmodium berghei"
qualitative_label = "n"

[[record]]
molecule = "CSc1sc(NC(=O)Cc2c(C)nc(C)[nH]c2=O)nc1C"
target_system = "Plasmodium berghei"
qualitative_label = "y"

[[record]]
molecule = "CN(C)CCN1C[C@@H]2CN(C(=O)C3CC=CC3)C[C@@H]2C1=O"
target_system = "Plasmodium berghei"
qualitative_label = "n"

[[record]]
molecule = "CN(C)CCN1C[C@@H]2CN(S(=O)(=O)c3cccs3)C[C@@H]2C1=O"
target_system = "Plasmodium berghei"
qualitative_label = "n"

[[record]]
molecule = "CCc1[nH]c2ccc(CNC(=O)c3cnc(N)nc3C)cc2c1C"
target_system = "Plasmodium berghei"
qualitative_label = "y"

[[record]]
molecule = "O[C@H]1CCN(CCCOc2ccccc2F)C[C@@]12CCCO2"
target_system = "Plasmodium berghei"
qualitative_label = "y"

[[record]]
molecule = "Cc1ccc2nc(CNCCCN3CCCC3=O)cc(O)c2c1"
target_system = "Plasmodium berghei"
qualitative_label = "y"

[[record]]
molecule = "O=C(N1CCCC(n2cncn2)C1)C1(c2ccccc2F)CCCC1 (stereo not given)"
target_system = "Plasmodium berghei"
qualitative_label = "n"

[[record]]
molecule = "Cc1cc(C)c(S(=O)(=O)Nc2c(C)nc(N(C)C)nc2C)cc1C"
target_system = "Plasmodium berghei"
qualitative_label = "n"

[[record]]
molecule = "COCCn1c2c(ccc1=O)CCN(Cc1ccoc1)CC2"
target_system = "Plasmodium berghei"
qualitative_label = "n"

[[record]]
molecule = "Cc1ccc2nc(CNCCCOc3ccccc3)cc(O)c2c1"
target_system = "Plasmodium berghei"
qualitative_label = "y"

[[record]]
molecule = "O=C(Nc1ccc(F)cc1)C(c1ccccc1)N1CCOCC1 (stereo not given)"
target_system = "Plasmodium berghei"
qualitative_label = "n"

[[record]]
molecule = "Clc1cccc(-c2noc(CCN3CCN(c4ccncc4)CC3)n2)c1"
target_system = "Plasmodium berghei"
qualitative_label = "y"

